Parameter: Ramos binding. Scope: all listed entries.
- measured.on: T1, human CD84 on cells (human) (UniProt Q9UIB8)
- T1 sequence (looked up): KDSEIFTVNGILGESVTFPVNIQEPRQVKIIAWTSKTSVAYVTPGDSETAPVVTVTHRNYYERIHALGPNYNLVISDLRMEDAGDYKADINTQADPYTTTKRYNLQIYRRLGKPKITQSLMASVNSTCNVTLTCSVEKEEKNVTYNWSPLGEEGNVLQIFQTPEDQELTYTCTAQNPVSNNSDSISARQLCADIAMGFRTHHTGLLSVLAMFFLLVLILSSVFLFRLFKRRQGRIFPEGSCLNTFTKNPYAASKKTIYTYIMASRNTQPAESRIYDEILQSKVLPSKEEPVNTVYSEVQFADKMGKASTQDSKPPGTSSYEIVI
- method.description: flow cytometry, hybridoma supernatant at equal antibody concentration, Ramos cells

| binder | Ramos binding (%) |
| --- | --- |
| GYCD84.2.32 (antibody, mouse IgG1, V domains shown) VH: EVQLQQSGPELEKPGASVKISCKASGYSFTGYNMNWVKQSNGKSLEWIGNIDPYYGGTNYNQKFKGKATLTVDKSSSTAYMQLKSLTSEDSAVYYCARGLLSGSFPYWGQGTLVTVSA VL: DIQMTQSPASLSASVGETVTITCRASENIYSYLAWYQQKQGKSPQLLVYNAKTLAEGVPSRFSGSGSGTQFSLKINSLHPEDFGSYFCQHHYGSPLTFGAGTKLEVK | 78.6 |
| GYCD84.1-7 (antibody, mouse IgG1, V domains shown) VH: QVTLKESGPGILQPSQTLSLTCSFSGFSLSTSGMGVGWIRQPSGKGLEWLAHIWWDDVKRYNPALKSRLTISKDTSSSQVFLKIASVDTADTATYYCARMRTSYYFDYWGQGTTLTVSS VL: DIQMTQSPASLSASVGETVTITCRASENIFSSLAWYQQRQGKSPQLLVYNAKTLAEGVPSRFSGSGSGTQFSLKINSLQPEDFGSYYCQHHYATPFTFGSGTKLEIK | 59 |
| GYCD84.1-226 (antibody, mouse IgG1, V domains shown) VH: QVQLQQPGAELVKPGTSVKLSCKASGYNFTRYWINWVKLRPGQGLEWIGDIYPGSGSTNYNEKFKSKATLTVDTSSSTAYMQLSRLASEDSALYYCARDTTIAYWGQGTLVTVSA VL: DIVLTQSPTSLAVSLGQRATISCRASQSVTTSRYSYMHWYQQKPGQPPKLLIKFASNLESGVPARFSGSGSGTDFTLNIHPVEEEDTATYYCQHSWEIPYTFGGGTKLEIK | 80.2 |
| GYCD84.2.27 (antibody, mouse IgG1, V domains shown) VH: QVTLKESGPGILQPSQTLSLTCSFSGFSLTTSGMGVGWIRQPSGKGLEWLAHIWWDDVKRYNPALKSRLTISKDTSSSQVFLKIASVDTADTASYYCARMSTSYYFDYWGQGTTLTVSS VL: DIVMTQSHKFMSTSLGDRVSISCKASQSLFTSVAWYQQKPGQSPKLLIYSASYRYTGVPDRFTGSGSGTDFTFTISSVQAEDLAVYYCQQHYSSPFTFGSGTKLGIK | 66.3 |
